Sourced from ChEMBL document CHEMBL1138872

assay: ABTS radical scavenging activity; format: functional

SUBSTANCE: VITAMIN E
IC50 (µM): 8.8

----------
assay: Superoxide anion radical scavenging activity by xanthine/xanthine oxidase method; format: functional
MEASURE: IC50

SUBSTANCE: VITAMIN E
RESULT: > 100 µM
